system: SARS-CoV-2 Alpha strain (QK002); format: cell-based
TEST_READOUT: EC50 (µM)
I only need the number, in µM, no unit after it.

[Q] Would you kindly share the measured EC50 for CCN(Cc1cc(Nc2ncnc3ccccc23)cc(Cl)c1O)C1CCCCC1 [Compound 19] ?
[A] 5.8

----------
tested on: SARS-CoV-2 Alpha strain (QK002); type: cell-based; conditions: Alpha strain (QK002), CPE assay in Vero/TMPRSS2
pEC50 by entry:
Hey, just a heads up that pEC50 is the negative log base 10 of the concentration in molar.

[
  {
    "MOLECULE_SMILES": "CC(C)N(Cc1cc(Nc2ncnc3ccccc23)cc(Cl)c1O)C(C)C",
    "pEC50": 5.57
  }
]

Here is another compound to look at.
[Q] Would you kindly share the measured pEC50 for CCN(Cc1cc(Nc2ncnc3ccccc23)cc(Cl)c1O)C(C)C ?
[A] 5.42

Data origin, for the record: patent US20250325547A1
